tgt: T1, 4H2839-bH
T1 chain: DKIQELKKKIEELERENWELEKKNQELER
protocolNotes: two-hybrid library CCNG1;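 further: natural log of median RNA to DNA barcode read ratio; higher means stronger binding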
Kindly supply the reported interaction score values for the records listed here.
I'd appreciate a reply containing only the number, no unit.

Q: Returns the measured interaction score for the input binder. Input: DKIQELKKENEELEREIWELEKENQELKR [4H2692-bH]
Result: -0.447

Q: Returns the measured interaction score for the input binder. Input: DKIQELKKKIEELERENWELEKKNQELER [4H2839-bH]
Result: 1.04

Q: Returns the measured interaction score for the input binder. Input: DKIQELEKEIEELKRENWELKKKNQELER [4H2143-bH]
Result: 1.24

Q: Returns the measured interaction score for the input binder. Input: DKIQELEKKNEELERKIWELKKEIQELER [4H2473-bH]
Result: -0.0772

Q: Returns the measured interaction score for the input binder. Input: DKIQELEKEIEELKRENWELEKKIQELKR [4H2134-bH]
Result: 0.785

Q: Returns the measured interaction score for the input binder. Input: DKIQELEKKNEELEREIWELEKKIQELKR [4H2438-bH]
Result: 0.0743

Q: Returns the measured interaction score for the input binder. Input: DKIQELKKEIEELERENWELKKENQELKR [4H2588-bH]
Result: 1.07

Q: Returns the measured interaction score for the input binder. Input: DKIQELKKENEELERENWELKKKIQELER [4H2717-bH]
Result: -0.51

Q: Returns the measured interaction score for the input binder. Input: DEIQELEKEIEELKRKNWELKKEIQELER [4H121-bH]
Result: 1.02

Q: Returns the measured interaction score for the input binder. Input: DKIQELEKKNEELKREIWELEKKNQELER [4H2503-bH]
Result: 0.527

Q: Returns the measured interaction score for the input binder. Input: DEIQELEKENEELERKNWELEKKIQELKR [4H182-bH]
Result: -0.281

Q: Returns the measured interaction score for the input binder. Input: DKIQELEKENEELERKIWELKKKNQELER [4H2223-bH]
Result: 0.582

Recorded values, source paper PMC10397247.
